- Tested on: Aphis gossipii Glover (cotton aphid, melon aphid)
- assay.notes: Insecticidal action test for Aphis gossipii Glover (seedling immersion)
- Format: in vivo
- condition.label: 72 h, 500 ppm active ingredient, cucumber seedlings with hatchlings immersed, 25° C., after 3 days, read-out: insect mortality

| mol | mortality at 500 ppm |
| --- | --- |
| CSC(=NOC(C)C)C(=NOC(C)C)n1cncn1 | ≥ 90% |
| CON=C(C(=NOC(C)C)C(N)=S)n1cncn1 | ≥ 90% |
| CCCCON=C(C#N)C(=NOCC)n1cncn1 | ≥ 90% |

* * *

- Test system: Nilaparvata lugens Stál (brown rice planthopper)
- assay.notes: Insecticidal action test for Nilaparvata lugens Stál (immersed sprouting rice)
- Format: in vivo
- condition.label: 144 h, 500 ppm active ingredient, sprouting unhulled rice immersed, 3-age larvae, 25° C., after 6 days, read-out: insect mortality

| mol | mortality at 500 ppm |
| --- | --- |
| CC(C)CON=C(N)C(=NOC(C)C)n1cncn1 | ≥ 90% |
| N#CC(=NOCC(F)(F)C(F)(F)F)C(=NOCC(F)(F)F)n1cncn1 | ≥ 90% |
| CC(C)ON=C(Br)C(=NOC(C)C)n1cncn1 | ≥ 90% |
| CC(C)ON=C(C#N)C(=NOC(C)C)n1cncn1 | ≥ 90% |
| CCCON=C(C#N)C(=NOCCC)n1cncn1 | ≥ 90% |
| CC(C)ON=C(Cl)C(=NOC(C)C)n1cncn1 | ≥ 90% |
| CC(C)ON=C(C(=NOC(C)C)n1cncn1)c1nnn[nH]1 | ≥ 90% |
| CC(=NOC(C)C)C(=NOC(C)C)n1ccnc1S | ≥ 90% |
| CSC(=NOC(C)C)C(=NOC(C)C)n1cncn1 | ≥ 90% |
| CCCCON=C(C(N)=O)C(=NOCC)n1cncn1 | ≥ 90% |
| COC(=NOC(C)C)C(=NOC(C)C)n1cncn1 | ≥ 90% |
| CCSC(=O)C(=NOC(C)C)C(=NOC)n1cncn1 | ≥ 90% |
| CCCON=C(C(N)=O)C(=NOCCC)n1cncn1 | ≥ 90% |
| CON=C(C(=NOC(C)C)C(N)=S)n1cncn1 | ≥ 90% |
